# System: T1, Axl protein (human, UniProt P30530 26-451)
# T1 construct: extracellular domain; also called human Axl; hAxl
# T1 sequence (looked up): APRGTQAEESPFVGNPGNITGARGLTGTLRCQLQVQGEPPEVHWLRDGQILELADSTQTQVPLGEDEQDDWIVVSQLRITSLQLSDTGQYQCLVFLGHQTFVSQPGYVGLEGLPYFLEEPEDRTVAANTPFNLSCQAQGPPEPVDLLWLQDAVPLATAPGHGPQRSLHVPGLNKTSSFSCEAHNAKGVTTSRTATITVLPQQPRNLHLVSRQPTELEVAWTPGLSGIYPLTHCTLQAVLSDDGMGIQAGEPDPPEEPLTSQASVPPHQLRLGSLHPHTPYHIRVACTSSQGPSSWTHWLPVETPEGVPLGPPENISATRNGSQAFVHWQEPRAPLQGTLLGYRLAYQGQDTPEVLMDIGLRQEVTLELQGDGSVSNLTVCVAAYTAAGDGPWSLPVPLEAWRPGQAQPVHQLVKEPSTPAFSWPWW
# Method description: ELISA, 1:3 dilution, pH 6.0 over pH 7.4
Measured parameter: Affinity ELISA CPE mutant ratio (1:3, pH 6.0/7.4) (ratio)
// note: answer is a bare numeric in ratio

Known Affinity ELISA CPE mutant ratio (1:3, pH 6.0/7.4) results, listed for orientation:
LC-H091Y (antibody, V domains shown) VH: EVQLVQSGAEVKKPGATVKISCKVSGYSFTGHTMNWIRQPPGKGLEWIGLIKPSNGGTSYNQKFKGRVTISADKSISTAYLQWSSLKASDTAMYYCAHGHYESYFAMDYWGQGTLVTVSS VL: DIQMTQSPSSLSASVGDRVTITCKASQDVSSAVAWYQQKPGQAPRLLIYWASTRHTGVPSRFSGSGSGTEFTLTISSLQPDDFATYYCQEYFSTPLTFGQGTKVEIK	3.93
LC-P095T (antibody, V domains shown) VH: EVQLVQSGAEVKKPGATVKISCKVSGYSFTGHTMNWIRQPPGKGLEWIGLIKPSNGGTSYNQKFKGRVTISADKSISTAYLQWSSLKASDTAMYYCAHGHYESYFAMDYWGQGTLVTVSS VL: DIQMTQSPSSLSASVGDRVTITCKASQDVSSAVAWYQQKPGQAPRLLIYWASTRHTGVPSRFSGSGSGTEFTLTISSLQPDDFATYYCQEHFSTTLTFGQGTKVEIK	2.5
LC-P095W (antibody, V domains shown) VH: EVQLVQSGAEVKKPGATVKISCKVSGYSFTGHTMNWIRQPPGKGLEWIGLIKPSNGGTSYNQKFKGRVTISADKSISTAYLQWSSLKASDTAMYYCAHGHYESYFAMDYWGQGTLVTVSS VL: DIQMTQSPSSLSASVGDRVTITCKASQDVSSAVAWYQQKPGQAPRLLIYWASTRHTGVPSRFSGSGSGTEFTLTISSLQPDDFATYYCQEHFSTWLTFGQGTKVEIK	2.15
LC-H091Q (antibody, V domains shown) VH: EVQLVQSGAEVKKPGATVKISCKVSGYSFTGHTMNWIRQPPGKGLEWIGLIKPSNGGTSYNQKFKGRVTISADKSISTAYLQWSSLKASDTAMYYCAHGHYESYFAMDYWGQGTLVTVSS VL: DIQMTQSPSSLSASVGDRVTITCKASQDVSSAVAWYQQKPGQAPRLLIYWASTRHTGVPSRFSGSGSGTEFTLTISSLQPDDFATYYCQEQFSTPLTFGQGTKVEIK	1.77

Next up:
Param item = LC-P095D (antibody, V domains shown) VH: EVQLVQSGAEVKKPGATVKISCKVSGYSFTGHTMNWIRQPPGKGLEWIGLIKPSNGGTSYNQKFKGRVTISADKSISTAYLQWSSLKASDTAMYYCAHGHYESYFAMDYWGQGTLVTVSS VL: DIQMTQSPSSLSASVGDRVTITCKASQDVSSAVAWYQQKPGQAPRLLIYWASTRHTGVPSRFSGSGSGTEFTLTISSLQPDDFATYYCQEHFSTDLTFGQGTKVEIK ; retrieve measured Affinity ELISA CPE mutant ratio (1:3, pH 6.0/7.4).
3.95
